- System: SR leukemia
- Assay Procedure: NCI tumour cell line growth inhibition, 48 h
Assay Metric: TGI

Worked cases, answers included:
CN1C[C@H]2[C@@H](C1=O)[C@H](c1ccccc1)ON2C	> 100 µM
NC(=O)C(=CNC(=S)Nc1ccc(Cl)c(Cl)c1)C(N)=O	> 100 µM
CCOC(=O)C(=[N+]=[N-])C(=O)CN1C(=O)C2CC(C)=C(C)CC2C1O (stereo unspecified)	> 100 µM
c1ccc(CN2CCC3(CC2)SSC2(CCN(Cc4ccccc4)CC2)SS3)cc1	> 100 µM
O=C1C(Nc2ccc(Br)cc2)=C(I)C(=O)c2ncccc21	2.42 µM

Request: Which TGI is reported for this molecule? Cc1ccc(/C=C/C(=N/N=C(N)N)c2ccccc2)cc1
Response: 6.32 µM

Request: Which TGI is reported for this molecule? C[C@H](NC(=O)n1c2ccccc2c2ccccc21)C(=O)O
Response: > 100 µM

Request: Which TGI is reported for this molecule? O=c1c2cccc(F)c2sc2c(N3CCNCC3)nc3ccccc3c12
Response: 3.35 µM

Request: Which TGI is reported for this molecule? C=CCc1cc(C=C(C#N)C#N)cc(OC)c1O
Response: > 100 µM

Request: Which TGI is reported for this molecule? COC1=CC(=O)c2c(cc(COP(=O)(OCC3OC(n4cc(F)c(=O)[nH]c4=O)CC3O)N(C)CCCCCl)n2C)C1=O (stereo unspecified)
Response: > 92.7 µM

Request: Which TGI is reported for this molecule? COc1c2c(cc3c1OCO3)C13C=CC(OC)CC1N(CC3)C2 (stereo unspecified)
Response: 22.2 µM

Request: Which TGI is reported for this molecule? Cc1cc(S(=O)(=O)NC2=NC(c3ccccc3)c3cc(Cl)ccc3N2)c(S)cc1Cl (stereo unspecified)
Response: > 100 µM

Request: Which TGI is reported for this molecule? CCCCCCCNC(P(=O)(O)O)P(=O)(O)O
Response: > 100 µM

Request: Which TGI is reported for this molecule? O=C1CCCC(=O)N1n1c(Cc2ccccc2)n[nH]c1=O
Response: > 100 µM

Request: Which TGI is reported for this molecule? N#Cc1cc([N+](=O)[O-])ccc1NC(=O)C(F)(F)F
Response: > 100 µM

Request: Which TGI is reported for this molecule? CCC/C(Cl)=N\OC(=O)Nc1cccc(C(F)(F)F)c1
Response: 5.93 µM

---

Overview of reported TGI across a group of molecules:
- System: ACHN renal
- Assay Procedure: NCI tumour cell line growth inhibition, 48 h
Please state the figure in µM; there is no need to write the unit.

CCOC(=O)c1ccc2c(c1)nc(/C=C/c1ccc(Cl)cc1)n2-c1cc(C(C)(C)C)[nH]n1	5.75

Below: the item to evaluate.
Request: Which TGI is reported for this molecule? O=C1C(Nc2ccc(Br)cc2)=C(I)C(=O)c2ncccc21
Response: 1.56

---

Overview of reported TGI across a group of compounds:
- Tested on: UACC-257 melanoma
- Assay Procedure: NCI tumour cell line growth inhibition, 48 h

Worked cases, answers included:
CN1C(=O)C(C(N)=O)C2CC1(C)Oc1ccccc12 (centres undefined)	> 100 µM
CCCCCCCCCCCCCCCC(=O)N[C@H](/C=C/[C@H](O)CCCCCCCCCCCCC)CO	> 100 µM
CC(C)(CCN=C(N)Nc1ccccn1)c1ccc(C(F)(F)F)cc1	32.8 µM
O=c1c2cccc(F)c2sc2c(N3CCNCC3)nc3ccccc3c12	3.94 µM
Cc1cc2c(C(C)C)c(O)c(O)c(C=NCCO)c2c(O)c1-c1c(C)cc2c(C(C)C)c(O)c(O)c(C=NCCO)c2c1O	4.98 µM
c1ccc(-c2nnc(SCc3c[nH]c4ccccc34)n2-c2ccccc2)cc1	> 100 µM
c1ccc(CN2CCC3(CC2)SSC2(CCN(Cc4ccccc4)CC2)SS3)cc1	> 100 µM
COc1ccc2c(c1)C1OCCNC1CC2 (centres undefined)	> 100 µM

Request: Which TGI is reported for this compound? COc1cc(OC)c2c(=O)c(OC)c(-c3ccc4c(c3)OCO4)oc2c1OC
Response: > 100 µM

Request: Which TGI is reported for this compound? O=C(COc1ccc(OCC(=O)NNC2=NC(c3cc(F)c(Cl)cc3Cl)CS2)c(Cl)c1)NNC1=NC(c2cc(F)c(Cl)cc2Cl)CS1 (centres undefined)
Response: > 100 µM

Request: Which TGI is reported for this compound? CC(Oc1ccc(OCC2CCCCC2)cc1)C(=O)NCCO (centres undefined)
Response: > 100 µM

Request: Which TGI is reported for this compound? CSc1cc(Br)ccc1-n1c(C(=O)c2ccccc2)c(SC)n(-c2ccccc2)c1=O
Response: > 100 µM

Request: Which TGI is reported for this compound? O=S1(=O)NC2CCC3NS(=O)(=O)NC4CCC(N1)N4S(=O)(=O)N23 (centres undefined)
Response: > 100 µM

Request: Which TGI is reported for this compound? COC(=O)N/N=C(\C(=O)Nc1cccc([N+](=O)[O-])c1)c1nc2ccc([N+](=O)[O-])cc2[nH]c1=O
Response: > 100 µM

Request: Which TGI is reported for this compound? O=c1oc2ccccc2c(O)c1/C=N/C(=S)NCc1ccccc1
Response: > 100 µM

Request: Which TGI is reported for this compound? COC1=CC(=O)c2c(cc(COP(=O)(OCC3OC(n4cc(F)c(=O)[nH]c4=O)CC3O)N(C)CCCCCl)n2C)C1=O (centres undefined)
Response: > 47.5 µM

Request: Which TGI is reported for this compound? COc1ccc(CNC(C)C(=O)O)cc1 (centres undefined)
Response: > 100 µM

Request: Which TGI is reported for this compound? CCN1C(=O)/C(=C2\SC(c3ccccc3)(c3ccccc3)c3ccccc32)SC1=S
Response: > 100 µM

Request: Which TGI is reported for this compound? O=c1c2ccccc2nc2n1C(c1ccc([N+](=O)[O-])cc1)C2(c1ccccc1)c1ccccc1 (centres undefined)
Response: > 100 µM

Request: Which TGI is reported for this compound? CC(=O)[CH-]C(=O)c1ccccc1.CC(=O)[CH-]C(=O)c1ccccc1.CC[C@H](/C=C/C(C)[C@H]1CCC2[C@@H]3CC=C4C[C@@H]([O-])CC[C@]4(C)C3CC[C@@]21C)C(C)C.CC[O-].[Ti+4] (some centres undefined)
Response: > 100 µM

Request: Which TGI is reported for this compound? Cc1ccc(NC(=O)CC/C(CC(=O)C(C)(C)C)=N/NC(=O)C[N+](C)(C)C)cc1C
Response: > 100 µM

Request: Which TGI is reported for this compound? Cc1[nH]c(C(=O)Nc2ccccc2OC2CCNCC2)c(Cl)c1Cl
Response: 2.12 µM

---

- Test system: SF-295 CNS
- Assay Procedure: NCI tumour cell line growth inhibition, 48 h
Assay Metric: TGI

Worked cases, answers included:
O=[N+]([O-])c1ccc(Sc2nc(Cl)nc(NC3CCCC3)n2)cc1	> 10 µM
Cc1ccc(C2SCC(=O)N2c2ccc(-c3ccc(-n4c(-c5ccccc5)nc5ccccc5c4=O)cc3)cc2)cc1 (centres undefined)	> 100 µM
CC1=NN2C(c3ccc(C)cc3)=CSC2=NC(C)(C)C1	> 100 µM

Below: the item to evaluate.
Request: Which TGI is reported for this compound? Clc1ccc(CNc2nc(Cl)c3[nH]cnc3n2)cc1Cl
Response: > 100 µM

---

- System: KM12 colon
- Assay Procedure: NCI tumour cell line growth inhibition, 48 h
Assay Metric: GI50

Worked cases, answers included:
CCN(Cc1ccccc1Cl)c1ccc(CO)c(Cl)c1	13.4 µM
NCCCCCCCCCCCn1c2c(c3ccccc3c1=O)C(=O)c1ccccc1-2	3.95 µM
Fc1ccc(-c2nn3c(-c4cc(C(F)(F)F)cc(C(F)(F)F)c4)nnc3s2)cc1	> 50 µM

Below: the item to evaluate.
Request: Which GI50 is reported for this compound? COC(=O)C[CH2][Ge]([CH3])([CH3])[S]c1ccccc1
Response: 36 µM

---

- Test system: U251 CNS
- Assay Procedure: NCI tumour cell line growth inhibition, 48 h
Assay Metric: TGI

Request: Which TGI is reported for this compound? COC(=O)C(Cc1ccccc1)NP(=O)(O)OCC1OC(n2cc(I)c(=O)[nH]c2=O)CC1O (centres undefined)
Response: > 100 µM

Request: Which TGI is reported for this compound? COC(=O)C(C(=O)C(=O)Nc1ccccc1C#N)c1nc2ccc([N+](=O)[O-])cc2[nH]c1=O (centres undefined)
Response: > 100 µM

Request: Which TGI is reported for this compound? C[N+](C)(CCCCCC[N+](C)(C)CCCN1C(=O)c2cc3ccccc3cc2C1=O)CCCN1C(=O)c2cc3ccccc3cc2C1=O
Response: > 37.5 µM

Request: Which TGI is reported for this compound? OC(c1cc2ccccc2[nH]1)C1(c2cccnc2)SCCCS1 (centres undefined)
Response: > 100 µM

Values compiled from PubChem BioAssay (NCI).
